# test.description: soluble on expression in E. coli; label from the status in PepcDB or PDB records
quantity.measured: soluble on expression in E. coli

# annotated cases, reported soluble on expression in E. coli shown
// recorded soluble on expression in E. coli for `MIYSMTAFAHLELKKEWGNAVWEMRSVNQRFLETYFRLPEQFRHLEMSLRERLRSALTRGKVECSLRIELTNSQDKELSLNKDYAEKVIGSLQTLQALAGGGQINLVDLLRYPGVVDSQTQDLDQIGQDLCAGFEEILADFIAMRAREGANLQQLIQQRLDSISKIATQVQAQMPAILQWQKEKLQQRFDELNLQLESQRLEQEIVLTAQRVDVAEELDRLQLHVKETMAILQRGGAVGRKLDFMMQELNRESNTLASKSINADVTNSAVELKVLIEQMREQIQNLE` : not soluble

// recorded soluble on expression in E. coli for `MEVKLWNDKREREMYENFAELFAIIKATEKLEKAYIRDLINPSEYESECQKLIVHFKTLSATLKDTVPNIERFADTYKMDCPAALYRLVTSGLPATVEHRATVAASTSNSASIVAECVQNFITSMDSLKLNMVAVDQVYPLLSDLSASLNKLSILPPDFEGKTKMKEWLSRLSKMGAADELTEQQSRQLHFDLESSYNSFMAALPKAGN` : soluble

// recorded soluble on expression in E. coli for `MSQNLFNVEDYRKLAQKRLPKMVYDYLEGGAEDEYGVKHNRDVFQQWRFKPKRLVDVSRRSLQAEVLGKRQSMPLLIGPTALNGALWPKGDLALARAATKAGIPFVLSTASNMSIEDLARQCDGDLWFQLYVIHREIAQGMVLKALHTGYTTLVLTTDVAVNGYRERDLHNRFKIPPFLTLKNFEGIDLGKMDKANLEMQAALMSRQMDASFNWEALRWLRDLWPHKLLVKGLLSAEDADRCIAEGADGVILSNHGGRQLDCAISPMEVLAQSVAKTGKPVLIDSGFRRGSDIVKALALGAEAVLLGRATLYGLAARGETGVDEVLTLLKADIDRTLAQIGCPDITSLSPDYLQNEGVTNTAPVDHLIGKGTHAHHHHHH` : soluble

// recorded soluble on expression in E. coli for `AIAETGGGAPLTKSSEAVEGDFVEDRLRGNEAFRRGNYEAAASYYSEALEKIRLAKTELPTQDRYPWSLEEVLIRCNRALVFLRLASAAALPNVGSNRFEEDACTAEHESEEATPCSLWQRAAEDASVALDLITDFEDEGESERVTELRVKALYRRMVANKGQNNFADAAKDAEALAKIRPEYRSEAELLAQRAAAESERAKQEALQKLKEVGNSFLSLFGVSIDNFQTKRNPDGTYSVSYCPKS` : soluble

---
// recorded soluble on expression in E. coli for `MTLWDRLSRLVRANLNDLLRRAEDPEKIIEQALLDMKQALREAREQVAEALAEQKRLEREVESHEREAALWEEKAREALKAGREDLAREALRRKKRALDLAEGFKAQLSEHKALTERLMTQLKALEAKIDEAEARKKLLLARKKGVEAAETVRRMESRLDQHPALEAFEEMEARILAMEDRHQALEALDQADLEKEFQALSAEKEVEEDLLRLKRELGQAAAALEHHHHHH` : not soluble

// recorded soluble on expression in E. coli for `MERVYRTDLKLLRYFLAVAEELHFGRAAARLNMSQPPLSIHIKELENQLGTQLFIRHSRSVVLTHAGKILMEESRRLLVNANNVLARIEQIGRGEAGRIELGVVGTAMWGRMRPVMRRFLRENPNVDVLFREKMPAMQMALLERRELDAGIWRMATEPPTGFTSLRLHESAFLVAMPEEHHLSSFSTVPLEALRDEYFVTMPPVYTDWDFLQRVCQQVGFSPVVIREVNEPQTVLAMVSMGIGITLIADSYAQMNWPGVIFRPLKQRIPADLYIVYETQQVTPAMVKLLAALTQ` : soluble

// recorded soluble on expression in E. coli for `MLPTILALLLAPLATALPPTIIRSPKVTGWGWWSEMESCPPGYFAHGMRIKYERDSGSLDETGLNAIELACKNRAVPSSGDTYIKGAEGVFGGWQAYQYCPQGEYVIGFALQSESWRGGNKDDVAANNFAAYCGRPEAPRRRYSWIQGSVNERGSWTRDQFCPARQIVCGIIVQIEPAQAPHVDDASLDSVGLKCCDF` : not soluble

// recorded soluble on expression in E. coli for `MGSDKIHHHHHHMSDIQLSLLNDFQRGFPLTSTPFDAIAQRLGLDVEALLDTLRRLTREGVVSRVGAVFRPNRVGVSTLAAMAVPEGRLDEVARLVSARPEVNHNYEREHRFNLWFVAAAANPAQLEQALHDIEQQTGLAAMRLPMVQDYHIDLGFDLRRSVGLTDRHQQKAAPSRALELDALDYVLVEAIQEGLPLVARPYAEVAAFIGTSEADVLIRLGRLLDHGVIKRLGIVVRHHELGFRANAMVVWNIPDEQVDEFGRCVGASGLVNLCYQRPRRLPEWPYNLFCMIHGKDRDAVLEHLDHLRDQCGLTDFPCEVLFSKRRFKQTGARYLAAQPKAAAEAT` : not soluble
